Each item that follows carries a reported IC50.
System: SMN2 Splicing D7 (SMN Δ7 transcript)
Assay: SMN Quantitative Splicing Assay (qPCR)
Format: cell-based, human
Details: Homo sapiens, Fibroblast, 24 h, SMA patient fibroblasts (GM03813), 2.5 µM to 0.6 nM

molecule: Cc1ncc2cc(O)c(-c3ncc(N(C)[C@@H]4CC5CCC(N5)[C@@H]4F)nn3)cc2n1 (single isomer, unassigned)
target-or-test-system: SMN2 Splicing D7 (SMN Δ7 transcript)
IC50: 101 to 500 nM
--
molecule: CN(c1cnc(-c2cc3cnccc3cc2O)nn1)[C@@H]1CC2CCC(N2)[C@@H]1F (single isomer, unassigned)
target-or-test-system: SMN2 Splicing D7 (SMN Δ7 transcript)
IC50: 101 to 500 nM
--
molecule: [2H]C([2H])([2H])n1ccc2cc(-c3ncc(N(C)[C@@H]4CC5CCC(N5)[C@@H]4F)nn3)c(O)cc2c1=O (some centres unmarked)
target-or-test-system: SMN2 Splicing D7 (SMN Δ7 transcript)
IC50: 0.01 to 15 nM
--
molecule: CCC1C[C@@H](N(C)c2cnc(-c3cc4oc(C(F)(F)F)c(C)c(=O)c4cc3O)nn2)[C@@H](F)[C@H](C)N1 (some centres unmarked)
target-or-test-system: SMN2 Splicing D7 (SMN Δ7 transcript)
IC50: 101 to 500 nM
--
molecule: CN(c1cnc(-c2cc3occc(=O)c3cc2O)nn1)[C@H]1C[C@]2(C)CC[C@@](C)(N2)[C@H]1F
target-or-test-system: SMN2 Splicing D7 (SMN Δ7 transcript)
IC50: 0.01 to 15 nM
--
molecule: Cc1cc2cc(O)c(-c3ncc(N(C)[C@H]4CC5CCC(N5)[C@H]4F)nn3)cc2cn1 (some centres unmarked)
target-or-test-system: SMN2 Splicing D7 (SMN Δ7 transcript)
IC50: 0.01 to 15 nM
--
molecule: CCn1ccc2cc(-c3ncc(N(C)C4CC5CCC(N5)[C@@H]4F)nn3)c(O)cc2c1=O (some centres unmarked)
target-or-test-system: SMN2 Splicing D7 (SMN Δ7 transcript)
IC50: 101 to 500 nM
--
molecule: [2H]C([2H])([2H])n1ncc2cc(-c3ncc(N(C)[C@@H]4CC5CC[C@H](N5)[C@@H]4F)nn3)c(O)cc2c1=O
target-or-test-system: SMN2 Splicing D7 (SMN Δ7 transcript)
IC50: 0.01 to 15 nM
--
molecule: CN(c1cnc(-c2cc3ccn(C)c(=O)c3cc2O)nn1)[C@@H]1C[C@@]2(C)CC[C@H](N2)[C@@H]1F
target-or-test-system: SMN2 Splicing D7 (SMN Δ7 transcript)
IC50: 0.01 to 15 nM
--
molecule: CN(c1cnc(-c2cc3ncn(C)c(=O)c3cc2O)nn1)[C@@H]1C[C@H]2CCCC(N2)[C@@H]1F
target-or-test-system: SMN2 Splicing D7 (SMN Δ7 transcript)
IC50: 16 to 50 nM
--
molecule: CN(c1cnc(-c2cc3cnn(C)c(=O)c3cc2O)nn1)C1CC2CCC(C)(N2)C1F (centres unmarked)
target-or-test-system: SMN2 Splicing D7 (SMN Δ7 transcript)
IC50: 0.01 to 15 nM
--
molecule: Cc1cc(=O)c2cc(O)c(-c3ncc(N(C)C4CC5CCCC(N5)C4F)nn3)cc2o1 (centres unmarked)
target-or-test-system: SMN2 Splicing D7 (SMN Δ7 transcript)
IC50: 16 to 50 nM
--
molecule: CCn1c(C)nc2cc(-c3ncc(N(C)[C@@H]4CC5CC(F)(F)C(C4)N5)nn3)c(O)cc2c1=O (some centres unmarked)
target-or-test-system: SMN2 Splicing D7 (SMN Δ7 transcript)
IC50: 501 to 10000 nM
--
molecule: CCn1cnc2cc(-c3ncc(N(C)C4CC5CCCC(N5)C4F)nn3)c(O)cc2c1=O (centres unmarked)
target-or-test-system: SMN2 Splicing D7 (SMN Δ7 transcript)
IC50: 101 to 500 nM

###

Tested on: SMN2 Splicing D7 (SMN Δ7 transcript)
Assay: SMN Quantitative Splicing Assay (qPCR)
Format: cell-based, human
Details: Homo sapiens, Fibroblast, 24 h, SMA patient fibroblasts (GM03813), 2.5 µM to 0.6 nM
Protocol: Spinal muscular atrophy (SMA) patient fibroblasts (GM03813, Coriell) were plated in 96-well plates at 50,000 cells/well. […] Treated cells were lysed and cDNA synthesized using the Fast Advanced Cells-to-Ct kit (Thermofisher A35378) according to the manufacturer’s instructions. 2 µL of each cDNA were used in qPCR reactions. […] Reactions were run in a Quant Studio 6 qPCR instrument with default settings.
pIC50: −log10 of the molar value.
experimental-endpoint: pIC50

compound: CN(c1cnc(-c2cc3c(F)cn(C)c(=O)c3cc2O)nn1)[C@H]1C[C@@H]2CCC(N2)[C@H]1F
result: 7.82 to 11.00
//
compound: CN(c1cnc(-c2cc3cc[nH]c(=O)c3cc2O)nn1)[C@@H]1CC2CC[C@H](N2)[C@@H]1F
result: 7.00 to 7.29
//
compound: Cc1cc2cc(-c3ncc(N(C)[C@H]4CC5CCCC(N5)[C@H]4F)nn3)c(O)cc2cn1 (stereo partly shown)
result: 7.82 to 11.00
//
compound: Cc1ncc2cc(-c3ncc(N(C)[C@H]4C[C@@H]5CCC(N5)[C@H]4F)nn3)c(O)cc2n1
result: 7.00 to 7.29
//
compound: CN(c1cnc(-c2cc3ccn(C)c(=O)c3cc2O)nn1)[C@@H]1CC2CCC(N2)[C@@H]1F (single isomer, unassigned)
result: 7.30 to 7.80
//
compound: CN(c1cnc(-c2cc3oc(C(F)(F)F)cc(=O)c3cc2O)nn1)[C@H]1C[C@@H]2CCC(N2)[C@H]1F
result: 7.82 to 11.00
//
compound: CN(c1cnc(-c2cc3oc(C(F)(F)F)cc(=O)c3cc2O)nn1)[C@H]1C[C@@H]2CCCC(N2)[C@H]1F
result: 7.30 to 7.80
//
compound: CN(c1cnc(-c2cc3c(F)cn(C)c(=O)c3cc2O)nn1)C1CC2CCCC(N2)[C@@H]1F (stereo partly shown)
result: 7.30 to 7.80
//
compound: CN(c1cnc(-c2cc3cccnc3cc2O)nn1)C1CC2CCC(N2)[C@@H]1F (stereo partly shown)
result: 6.30 to 7.00
//
compound: CN(c1cnc(-c2cc3ccn(C)c(=O)c3cc2O)nn1)[C@H]1CC2CCC(N2)[C@H]1F (single isomer, unassigned)
result: 7.82 to 11.00
//
compound: Cc1cc(=O)c2cc(O)c(-c3ncc(N(C)[C@@H]4C[C@H]5CCC(N5)[C@@H]4F)nn3)cc2o1 (single isomer, unassigned)
result: 7.30 to 7.80
//
compound: CCn1cnc2cc(-c3ncc(N(C)[C@H]4CC5CCC[C@@H](N5)[C@H]4F)nn3)c(O)cc2c1=O
result: 7.82 to 11.00
//
compound: CCc1cc(=O)c2cc(-c3ncc(N(C)[C@@H]4C[C@H]5CCCC(N5)[C@@H]4F)nn3)c(O)cc2o1
result: 6.30 to 7.00
//
compound: Cc1cc2cc(-c3ncc(N(C)[C@@H]4CC5CCCC(N5)[C@@H]4F)nn3)c(O)cc2cn1 (stereo partly shown)
result: 7.00 to 7.29
//
compound: CN(c1cnc(-c2cc3ncn(C)c(=O)c3cc2O)nn1)C1CC2CCCC(N2)C1F (stereo not shown)
result: 7.82 to 11.00
//
compound: [2H]C([2H])([2H])n1nc(F)c2cc(-c3ncc(N(C)[C@H]4C[C@@H]5CCC(N5)[C@H]4F)nn3)c(O)cc2c1=O
result: 7.82 to 11.00
//
compound: CCn1cc(F)c2cc(-c3ncc(N(C)[C@H]4CC5COCC(N5)[C@H]4F)nn3)c(O)cc2c1=O (stereo partly shown)
result: 5.00 to 6.30
//
compound: CN(c1cnc(-c2cc3ccn(C(F)F)c(=O)c3cc2O)nn1)[C@H]1CC2CCC(N2)[C@H]1F (stereo partly shown)
result: 7.82 to 11.00
//
compound: [2H]C([2H])([2H])N(c1cnc(-c2cc3ncn(C([2H])([2H])[2H])c(=O)c3cc2O)nn1)[C@@H]1CC2CC[C@H](N2)[C@@H]1F
result: 7.30 to 7.80
//
compound: CN(c1cnc(-c2cc3cncnc3cc2O)nn1)C1CC2CCC(N2)[C@@H]1F (stereo partly shown)
result: 6.30 to 7.00
//
compound: CN(c1cnc(-c2cc3c(=O)ccoc3cc2O)nn1)[C@@H]1CC2CCCC(N2)[C@@H]1F (stereo partly shown)
result: 5.00 to 6.30
//
compound: CN(c1cnc(-c2cc3cnn(C)c(=O)c3cc2O)nn1)[C@H]1CC2CCC(N2)[C@H]1F (single isomer, unassigned)
result: 7.82 to 11.00
//
compound: CN(c1cnc(-c2cc3occ(C(F)(F)F)c(=O)c3cc2O)nn1)[C@@H]1C[C@H]2CC[C@H](N2)[C@@H]1F
result: 6.30 to 7.00
//
compound: CN(c1cnc(-c2cc3c(F)cn(C)c(=O)c3cc2O)nn1)[C@@H]1C[C@@]2(C)CCC(N2)[C@@H]1F
result: 7.82 to 11.00
//
compound: CN(c1cnc(-c2cc3occc(=O)c3cc2O)nn1)[C@@H]1CC2CCC[C@H](N2)[C@@H]1F
result: 7.30 to 7.80
//
compound: CN(c1cnc(-c2cc3ncn(C(F)F)c(=O)c3cc2O)nn1)[C@H]1CC2CC[C@@H](N2)[C@H]1F
result: 7.82 to 11.00
//
compound: Cc1ncc2cc(O)c(-c3ncc(N(C)[C@H]4CC5CCC(N5)[C@H]4F)nn3)cc2n1 (stereo partly shown)
result: 7.30 to 7.80
//
compound: Cc1cc(=O)c2cc(O)c(-c3ncc(N(C)[C@H]4CC5CC[C@@H](N5)[C@H]4F)nn3)cc2o1 (single isomer, unassigned)
result: 7.82 to 11.00

Where do these numbers come from? They come from patent US20230331718A1.
